meta.source: a melting point compilation (Tetko et al.; mined from patent text by program, amines drawn as free bases though some values may be those of a salt)

Catalogue of melting point readings, one per entry.

Solved entries:
1) O=C(NCC1CCN(CC2(C(=O)O)CCOCC2)CC1)N1C(=O)C2(CCCC2)c2ccc(F)cc21 :: 129 °C
2) CS(=O)(=O)N1Cc2sccc2C(O)C1 (centres undefined) :: 140 °C
3) C=CCc1[nH]cc2c1-c1ccc(Cl)cc1C(c1ccccc1F)=NC2 :: 212 to 214 °C
4) CCc1cc2c(NCc3ccccc3)ncnc2s1 :: 128 to 131 °C
5) N#CCCNC(=O)C1=CC(CF)(CF)Oc2ccc([N+](=O)[O-])cc21 :: 173 to 174 °C
6) CNn1c(C)nc(N2CCc3ccccc3CC2)c(C#N)c1=O :: > 200 °C
7) CCCCc1cc2ccccc2c(Oc2ccc(/C=C/C(=O)O)cc2)c1-c1ccc(O)cc1 :: 107 to 109 °C
8) FCc1cccc(-c2ccc(-c3cn([C@H]4CN5CCC4CC5)nn3)s2)c1 :: 144 °C

Identify the reported melting point for the following entry. CC(C)n1c(C=O)c(-c2ccc(F)cc2)c(-c2ccc(F)cc2)c1C(=O)Nc1ccc(S(N)(=O)=O)cc1
194 to 195 °C

----------
Catalogue of melting point readings, one per entry.

Solved entries:
1) COc1cc(C(=O)N(C(C)C)C2CCCCC2)ccc1Cn1c(CN(C)C)nc2cccnc21 :: 124 to 125 °C
2) CC[C@@H](c1ccccc1)N(Cc1ccc(C(=O)O)cc1OC)S(=O)(=O)c1ccc(Cl)cc1 :: 176 to 178 °C
3) O=C(Nc1ccc(-n2nc(C(F)(F)F)cc2C(F)(F)F)cc1)c1c(F)cc(Cl)cc1Cl :: 185 to 188 °C
4) COC1C(C)OC(ON(C)Cc2ccc(-c3ncn(-c4ccc(OC(F)(F)F)cc4)n3)cc2)C(OC)C1OC (stereo unspecified) :: 93 to 100 °C
5) CCOC(=O)c1cnc2cc(N)ccc2n1 :: 181 to 183 °C

We next turn to a different compound, shown below.
Identify the reported melting point for the following entry. O=C(O)CCCNC(=O)c1ccccc1NC(=O)c1cccc(Cl)c1
165 to 166 °C

----------
value.kind: melting point

Solved entries:
1. O=C1NC(=S)C(c2c[nH]c3ccccc23)=C1c1c[nH]c2ccccc12 :: 254 to 257 °C
2. CCn1c(C(c2ccccc2)c2ccccc2)nc(-c2ccncc2)c1-c1ccc(Cl)cc1 :: 199 to 200 °C
3. CC(C)n1cc(Cc2cc3cccc(-c4cccc(C(=O)NCCO)c4)c3s2)ccc1=O :: 178 to 183 °C

We next turn to a different molecule, shown below.
Identify the reported melting point for the following entry. CCOC(=O)c1c(N(C)C)c2cc(C)ccc2n(Cc2ccccc2)c1=O
96 to 103 °C

----------
value.kind: melting point

Solved entries:
1. O=C1N(Cc2ccc3nsnc3c2)c2ccccc2C12COc1cc3c(cc12)CCO3 (stereo not drawn) :: 162 to 164 °C
2. CCOc1ccc(CC2NCCc3cc(OC(C)C)c(OC(C)C)cc32)cc1OCC (stereo not drawn) :: 76 to 80 °C

We next turn to a different compound, shown below.
Identify the reported melting point for the following entry. CC1(C)CC(=C(c2ccccc2)c2ccc(OCCOCCO)cc2)CC(C)(C)C1
116 to 117 °C

----------
value.kind: melting point

Solved entries:
1. CCOC(=O)CNC(=O)c1cn2nc(Cl)ccc2n1 :: 190 to 191 °C
2. O=C(O)c1ccc(COCc2csc3nc(C(=O)NCc4ccnc(OCCCc5nc[nH]n5)c4)[nH]c(=O)c23)cc1 :: 206 to 209 °C
3. Cc1cc(C(=O)O)n(-c2ccc(F)cc2)n1 :: 188 °C
4. Cn1c(S)nc(-c2ccccc2)c1-c1ccccc1 :: 179 to 182 °C
5. O=C1CCC(N2Cc3c(OCc4ccc(CN5CCC(Oc6ccccc6)CC5)cc4)cccc3C2=O)C(=O)N1 (centres undefined) :: 180 to 182 °C

Identify the reported melting point for the following entry. COc1cccc(CCNc2nc(N)n3nc(-c4ccco4)nc3n2)c1
172 to 174 °C

Identify the reported melting point for the following entry. Cc1ccc(CC2(O)CCN(CC3=Cc4ccc(O)cc4C3)CC2)cc1
154 to 157 °C

Identify the reported melting point for the following entry. O=C(NCC12CC3CC(CC(C3)C1)C2)c1cc(O)ccc1Cl
263 to 264 °C

Identify the reported melting point for the following entry. O=c1oc(-c2ccc(OCCc3ccccc3)cc2)cc(O)c1SCCc1ccccc1
103 to 106 °C
